Origin of the recorded values: patent US7517998B2

- measured_on: K103NNY181C mutant reverse transcriptase (Human immunodeficiency virus type 1 group M subtype B, UniProt P04585, K690N/Y768C)
- Construct: mutations that occur in the reverse transcriptase segment of the pol gene
- assay_info: Reverse transcriptase enzymatic assay (PicoGreen), K103N/Y181C mutant RT
- Type: biochemical, HIV-1
- run_parameters: IC50 mut, mutant reverse transcriptase, enzymatic assay of Example 24
metric_name: IC50 (nM)
Kindly answer with a numeric value in nM, unit omitted.

## Task What does the record list as IC50 for CC(C)(C)c1ccc(-n2nnnc2SCC(=O)Nc2ccc(-c3cccc(C(=O)O)c3)cc2Cl)c(Cl)c1 ?
## Result 50

## Task And CS(=O)(=O)NC(=O)c1ccc(NC(=O)CSc2nnnn2-c2ccc(C3CC3)cc2Cl)c(Cl)c1 ?
## Result 146

## Task And CC(C)(C)c1ccc(-n2nnnc2SCC(=O)Nc2ccc(-c3ccc(CCC(=O)O)cc3)cc2Cl)c(Cl)c1 ?
## Result 9.3

## Task And CC(C)(C)c1ccc(-n2nnnc2SCC(=O)Nc2ccc(OCC(=O)NCCC(=O)O)cc2Cl)c(Cl)c1 ?
## Result 124

----------
- measured_on: K103NNY181C mutant reverse transcriptase (Human immunodeficiency virus type 1 group M subtype B, UniProt P04585, K690N/Y768C)
- Construct: mutations that occur in the reverse transcriptase segment of the pol gene
- assay_info: Reverse transcriptase enzymatic assay (PicoGreen), K103N/Y181C mutant RT
- Type: biochemical, HIV-1
- run_parameters: IC50 mut, mutant reverse transcriptase, enzymatic assay of Example 24
Provide the reported IC50 of each item.
Kindly answer with a numeric value in nM, unit omitted.

## Task What does the record list as IC50 for O=C(O)Cc1ccc(-c2ccc(NC(=O)CSc3nnnn3-c3ccc(C4CC4)cc3Cl)c(Br)c2)cc1 [Compound 2048] ?
## Result 13

## Task And Cc1ccc(-n2nnnc2SCC(=O)Nc2ccc(/C=C/C(=O)O)cc2Cl)c(Cl)c1 [Compound 3006] ?
## Result 265

## Task And CC(C)(C)c1ccc(-n2nnnc2SCC(=O)Nc2ccc(OCC(=O)NCc3ccco3)cc2Cl)c(Cl)c1 [Compound 5002] ?
## Result 137

## Task And Cn1cc(NC(=O)COc2ccc(NC(=O)CSc3nnnn3-c3ccc(C(C)(C)C)cc3Cl)c(Cl)c2)cc1C(=O)O [Compound 5029] ?
## Result 34

## Task And COC(=O)Cc1ccc(-c2ccc(NC(=O)CSc3nnnn3-c3ccc(C)cc3Cl)c([N+](=O)[O-])c2)cc1 [Compound 2010] ?
## Result 40

## Task And COC(=O)C1CCN(CCOc2ccc(NC(=O)CSc3nnnn3-c3ccc(C(C)(C)C)cc3Cl)c(Cl)c2)CC1 [Compound 3035] ?
## Result 355

## Task And O=C(CSc1nnnn1-c1ccc(C2CC2)cc1Cl)Nc1ccc(-c2ccc(OCCN3CCCCC3)c(Cl)c2)cc1Cl [Compound 3038] ?
## Result 167

## Task And CC(C)(C)c1ccc(-n2nnnc2SCC(=O)Nc2ccc(OCC(=O)Nc3cccc(C(=O)O)c3)cc2Cl)c(Cl)c1 [Compound 5022] ?
## Result 106

## Task And O=C(CSc1nnnn1-c1ccc(C2CC2)cc1Cl)Nc1ccc(-c2ccc(OCCN3CCCC3)cc2)c(F)c1Cl [Compound 2057] ?
## Result 8.8

## Task And O=C(O)Cc1ccc(-c2ccc(NC(=O)CSc3nnnn3-c3ccc(C(F)(F)F)cc3Cl)c(Cl)c2)cc1 [Compound 2023] ?
## Result 169

## Task And CC(C)(C)c1ccc(-n2nnnc2SCC(=O)Nc2ccc(OCC(=O)Nc3ccc(O)cc3)cc2Cl)c(Cl)c1 [Compound 5013] ?
## Result 150

## Task And CC(C)(C)c1ccc(-n2nnnc2SCC(=O)Nc2ccc(OCC(=O)NC[C@H]3CC[C@H](C(=O)O)CC3)cc2Cl)c(Cl)c1 [Compound 5031] ?
## Result 118

## Task And CC(C)(C)c1ccc(-n2nnnc2SCC(=O)Nc2ccc(-c3ccc(OCCN4CCCCC4)cc3)cc2Cl)c(Cl)c1 [Compound 2039] ?
## Result 28

## Task And CC(C)(C)c1ccc(-n2nnnc2SCC(=O)Nc2ccc(S(=O)(=O)Nc3ccccc3)cc2Cl)c(Cl)c1 [Compound 3026] ?
## Result 423

## Task And CN1CCN(NS(=O)(=O)c2ccc(NC(=O)CSc3nnnn3-c3ccc(C4CC4)cc3Cl)c(Cl)c2)CC1 [Compound 3037] ?
## Result 112

## Task And O=C(CSc1nnnn1-c1ccc(C2CC2)cc1Cl)Nc1ccc(OCC(=O)N2CCC(C(=O)O)CC2)cc1Cl [Compound 5032] ?
## Result 51.5

## Task And CC(C)(C)c1ccc(-n2nnnc2SCC(=O)Nc2ccc(-c3ccc(OCC(=O)O)cc3F)cc2Cl)c(Cl)c1 [Compound 3020] ?
## Result 23

## Task And Cc1ccc(-n2nccc2OCC(=O)Nc2ccc(-c3ccc(CC(=O)O)cc3)cc2Cl)c(Cl)c1 [Compound 1003] ?
## Result 770
